Tested on: N-type calcium channel (Homo sapiens)
Sequence (Q00975 whole entry): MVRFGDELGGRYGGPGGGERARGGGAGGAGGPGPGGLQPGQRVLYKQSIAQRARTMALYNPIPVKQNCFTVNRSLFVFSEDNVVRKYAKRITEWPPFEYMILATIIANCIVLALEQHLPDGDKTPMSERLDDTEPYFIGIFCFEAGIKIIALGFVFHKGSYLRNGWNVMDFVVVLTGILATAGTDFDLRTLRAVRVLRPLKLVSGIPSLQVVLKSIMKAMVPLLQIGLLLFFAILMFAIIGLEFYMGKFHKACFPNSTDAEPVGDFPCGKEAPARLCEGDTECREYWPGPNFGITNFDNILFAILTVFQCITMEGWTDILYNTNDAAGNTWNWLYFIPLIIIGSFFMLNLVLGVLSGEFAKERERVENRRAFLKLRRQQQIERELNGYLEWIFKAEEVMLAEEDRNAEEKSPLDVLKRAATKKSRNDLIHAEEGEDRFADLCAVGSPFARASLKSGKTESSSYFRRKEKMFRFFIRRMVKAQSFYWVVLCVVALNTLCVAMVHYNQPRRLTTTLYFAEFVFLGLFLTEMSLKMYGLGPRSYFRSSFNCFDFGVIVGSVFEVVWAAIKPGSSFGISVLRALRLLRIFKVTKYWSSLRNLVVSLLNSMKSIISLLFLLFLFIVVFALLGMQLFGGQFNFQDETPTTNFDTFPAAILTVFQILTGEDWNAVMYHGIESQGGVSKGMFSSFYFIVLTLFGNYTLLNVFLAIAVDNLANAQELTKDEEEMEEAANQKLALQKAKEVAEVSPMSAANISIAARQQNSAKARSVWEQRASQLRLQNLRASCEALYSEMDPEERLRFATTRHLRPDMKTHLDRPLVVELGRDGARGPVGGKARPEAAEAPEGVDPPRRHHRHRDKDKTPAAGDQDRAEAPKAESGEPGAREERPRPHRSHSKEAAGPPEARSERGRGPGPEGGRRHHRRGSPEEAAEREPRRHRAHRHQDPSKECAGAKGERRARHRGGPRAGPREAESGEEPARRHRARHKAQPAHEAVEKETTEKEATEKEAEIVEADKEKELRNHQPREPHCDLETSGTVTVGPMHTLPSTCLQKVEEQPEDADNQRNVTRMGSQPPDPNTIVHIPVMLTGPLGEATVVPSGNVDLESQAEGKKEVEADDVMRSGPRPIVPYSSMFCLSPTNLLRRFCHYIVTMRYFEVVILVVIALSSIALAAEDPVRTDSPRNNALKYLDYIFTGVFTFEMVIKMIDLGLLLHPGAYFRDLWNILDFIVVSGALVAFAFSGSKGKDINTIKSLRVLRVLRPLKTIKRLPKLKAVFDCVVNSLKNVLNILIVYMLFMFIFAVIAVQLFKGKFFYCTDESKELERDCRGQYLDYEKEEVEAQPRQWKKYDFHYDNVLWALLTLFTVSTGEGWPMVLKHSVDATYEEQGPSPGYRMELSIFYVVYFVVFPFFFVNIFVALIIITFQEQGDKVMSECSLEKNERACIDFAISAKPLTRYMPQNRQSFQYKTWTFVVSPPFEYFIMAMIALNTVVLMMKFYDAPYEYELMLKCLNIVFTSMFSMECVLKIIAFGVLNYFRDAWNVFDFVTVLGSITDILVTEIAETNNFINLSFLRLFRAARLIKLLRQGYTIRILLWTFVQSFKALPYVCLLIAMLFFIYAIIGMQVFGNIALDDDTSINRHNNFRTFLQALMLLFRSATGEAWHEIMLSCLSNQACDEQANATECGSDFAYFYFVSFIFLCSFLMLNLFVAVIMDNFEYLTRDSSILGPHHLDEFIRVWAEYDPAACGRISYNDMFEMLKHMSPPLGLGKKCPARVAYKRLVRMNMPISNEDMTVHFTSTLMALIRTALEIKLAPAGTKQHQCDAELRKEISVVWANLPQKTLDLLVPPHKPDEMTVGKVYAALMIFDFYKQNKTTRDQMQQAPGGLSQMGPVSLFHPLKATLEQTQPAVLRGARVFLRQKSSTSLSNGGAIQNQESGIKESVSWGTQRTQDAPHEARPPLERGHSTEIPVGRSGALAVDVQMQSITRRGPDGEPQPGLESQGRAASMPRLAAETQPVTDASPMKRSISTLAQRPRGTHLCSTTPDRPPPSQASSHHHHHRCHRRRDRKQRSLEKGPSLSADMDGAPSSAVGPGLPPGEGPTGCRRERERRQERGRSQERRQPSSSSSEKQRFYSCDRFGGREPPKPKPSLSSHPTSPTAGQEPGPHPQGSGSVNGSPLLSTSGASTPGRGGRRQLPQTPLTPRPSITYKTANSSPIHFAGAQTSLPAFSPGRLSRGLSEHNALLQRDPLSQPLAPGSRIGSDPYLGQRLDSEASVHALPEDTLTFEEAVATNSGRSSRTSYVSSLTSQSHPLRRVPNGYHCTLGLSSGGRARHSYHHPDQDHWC
Sequence (P54284 whole entry partner): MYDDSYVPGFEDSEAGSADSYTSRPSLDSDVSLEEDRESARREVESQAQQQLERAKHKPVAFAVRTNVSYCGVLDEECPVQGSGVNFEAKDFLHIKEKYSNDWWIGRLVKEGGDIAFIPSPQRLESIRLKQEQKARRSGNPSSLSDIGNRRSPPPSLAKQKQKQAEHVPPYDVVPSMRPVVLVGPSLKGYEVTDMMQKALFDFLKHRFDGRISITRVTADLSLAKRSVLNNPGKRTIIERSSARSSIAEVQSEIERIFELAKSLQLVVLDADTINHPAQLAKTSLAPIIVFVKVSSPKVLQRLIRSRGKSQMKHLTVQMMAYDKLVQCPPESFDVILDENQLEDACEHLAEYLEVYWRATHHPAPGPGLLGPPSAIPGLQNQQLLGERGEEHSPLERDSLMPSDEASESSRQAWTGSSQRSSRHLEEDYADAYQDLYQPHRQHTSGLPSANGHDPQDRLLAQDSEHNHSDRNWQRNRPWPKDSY
Sequence (P54289 25-956 partner limits assumed): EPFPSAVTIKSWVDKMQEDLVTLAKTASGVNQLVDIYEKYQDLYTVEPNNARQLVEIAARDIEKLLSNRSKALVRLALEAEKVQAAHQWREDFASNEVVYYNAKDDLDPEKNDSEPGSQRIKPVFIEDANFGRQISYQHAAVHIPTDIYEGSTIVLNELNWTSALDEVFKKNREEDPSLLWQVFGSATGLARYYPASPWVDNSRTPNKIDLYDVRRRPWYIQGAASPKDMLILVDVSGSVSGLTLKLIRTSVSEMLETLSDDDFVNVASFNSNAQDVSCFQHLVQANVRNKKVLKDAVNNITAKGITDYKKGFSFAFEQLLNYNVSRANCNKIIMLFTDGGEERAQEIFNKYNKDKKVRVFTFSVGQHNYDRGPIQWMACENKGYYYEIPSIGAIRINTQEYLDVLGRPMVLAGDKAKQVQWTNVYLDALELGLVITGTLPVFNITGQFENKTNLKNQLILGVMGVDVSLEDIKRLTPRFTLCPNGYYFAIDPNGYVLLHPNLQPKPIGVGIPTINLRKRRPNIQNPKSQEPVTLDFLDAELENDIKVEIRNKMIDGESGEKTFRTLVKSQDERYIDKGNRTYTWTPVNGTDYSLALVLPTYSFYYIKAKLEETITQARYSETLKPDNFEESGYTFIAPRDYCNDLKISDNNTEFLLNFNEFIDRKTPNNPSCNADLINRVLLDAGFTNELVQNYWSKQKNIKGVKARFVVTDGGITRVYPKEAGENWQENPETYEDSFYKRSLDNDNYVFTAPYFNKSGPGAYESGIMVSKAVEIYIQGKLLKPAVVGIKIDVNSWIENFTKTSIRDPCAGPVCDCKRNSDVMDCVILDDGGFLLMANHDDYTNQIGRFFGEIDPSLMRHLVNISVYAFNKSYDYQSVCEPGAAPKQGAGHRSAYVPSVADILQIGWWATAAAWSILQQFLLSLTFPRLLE
Sequence (P54289 957-1103 partner limits assumed): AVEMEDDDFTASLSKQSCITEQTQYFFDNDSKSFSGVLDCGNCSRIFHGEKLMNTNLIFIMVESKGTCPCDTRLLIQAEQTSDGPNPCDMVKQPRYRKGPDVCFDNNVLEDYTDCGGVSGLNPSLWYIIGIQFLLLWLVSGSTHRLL
Run description: N-type calcium channel antagonistic activity, changed procedure (fluorescence dye method, calculated from inhibition rates)
Format: cell-based
Protocol conditions: IMR-32 cells, 60 mM KCl stimulation, Table 3, read-out: N-type inhibition pIC50 (converted)
Readout: IC50 (nM)
State the answer as a number, implicitly in nM.

Any idea what IC50 came out for CC1=C(C(=O)NC/C=C/c2ccccc2)C(c2ccc(Cl)c(Cl)c2)N=C(c2ccccc2)N1 (centres unmarked) on N-type calcium channel (Homo sapiens)?
2000

Query CC1=C(C(=O)NC/C=C/c2ccccc2)C(c2cccc(Cl)c2)N=C(c2ccccc2)N1 (centres unmarked) next
1260

Query [N-]=[N+]=NCCOCC1=C(C(=O)NCCC(c2ccccc2)c2ccccc2)C(c2cccc(Cl)c2)NC(=O)N1 (centres unmarked) next
2510

Query CC1=C(C(=O)NCCC(c2ccccc2)c2ccccc2)C(c2ccc(Cl)c(Cl)c2)N=C(c2cccnc2)N1 (centres unmarked) next
1260

Query CCOC(=O)CN1C(=O)NC(C)=C(C(=O)NC/C=C/c2ccccc2)C1c1cccc(Cl)c1 (centres unmarked) next
3980

The measured values listed here are drawn from patent US6855716B2.
